Some substances, each annotated with its measured IC50 activity group, enzyme release assay.
# experimentalSystem: human C5aR (CD88) (human, UniProt P21730 1-350)
# Sequence (looked up): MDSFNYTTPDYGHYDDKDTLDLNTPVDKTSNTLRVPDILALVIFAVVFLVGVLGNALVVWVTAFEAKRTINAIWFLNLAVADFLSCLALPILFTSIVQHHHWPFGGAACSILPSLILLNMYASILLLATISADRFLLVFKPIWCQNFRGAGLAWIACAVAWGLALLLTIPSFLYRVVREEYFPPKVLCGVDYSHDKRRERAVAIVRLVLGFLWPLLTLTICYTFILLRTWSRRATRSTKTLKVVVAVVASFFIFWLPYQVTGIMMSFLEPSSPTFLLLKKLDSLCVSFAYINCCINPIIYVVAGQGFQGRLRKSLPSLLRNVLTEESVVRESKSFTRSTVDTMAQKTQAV
# assayRemarks: cell-based or functional assay
observationType: IC50 activity group, enzyme release assay

substance	endpointValue
Ac-Phe-Orn-Pro-hle-1Ni-Phe-NH2 (peptide)	< 0.05 µM
Ac-Ser-Phe-Orn-Aze-cha-Bta-Phe-NH2 (peptide)	< 0.02 µM
Ac-Phe-Orn-Pro-hle-Off-Phe-NH2 (peptide)	< 0.2 µM
(-CO-CH2-NH-CO-)-Phe-Orn-Pro-cha-Bta-Phe-NH2 (peptide)	< 0.2 µM
Ac-Phe-Fcn-Aze-cha-Bta-Phe-NH2 (peptide)	< 0.02 µM
Ac-Thi-Orn-Pip-cha-Bta-Phe-NH2 (peptide)	< 0.05 µM

====

# experimentalSystem: human C5aR (CD88) (human, UniProt P21730 1-350)
# Sequence (looked up): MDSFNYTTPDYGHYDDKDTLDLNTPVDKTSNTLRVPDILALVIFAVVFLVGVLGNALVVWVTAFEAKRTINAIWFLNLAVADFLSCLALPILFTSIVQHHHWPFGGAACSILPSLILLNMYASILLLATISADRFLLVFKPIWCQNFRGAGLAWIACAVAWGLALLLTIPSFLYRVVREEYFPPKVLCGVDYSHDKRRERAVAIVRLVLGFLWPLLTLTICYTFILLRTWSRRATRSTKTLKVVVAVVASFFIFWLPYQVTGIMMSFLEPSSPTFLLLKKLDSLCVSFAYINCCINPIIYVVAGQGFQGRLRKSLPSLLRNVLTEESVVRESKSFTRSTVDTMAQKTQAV
# assayRemarks: cell-based or functional assay
Some substances, each annotated with its measured IC50 activity group, enzyme release assay.
observationType: IC50 activity group, enzyme release assay

substance	experimentalSystem	endpointValue
Ac-Off-Orn-Pro-hle-Bta-Phe-NH2 (peptide)	human C5aR (CD88) (human, UniProt P21730 1-350)	< 50 nM
CH3CH2CO-Phe-Orn-Pro-cha-Bta-Phe-NH2 (peptide)	human C5aR (CD88) (human, UniProt P21730 1-350)	< 50 nM
Ac-Phe-Orn-Pro-cha-Bta-Pmf-NH2 (peptide)	human C5aR (CD88) (human, UniProt P21730 1-350)	< 50 nM
Ac-Dab-Phe-Orn-Aze-cha-Bta-Phe-NH2 (peptide)	human C5aR (CD88) (human, UniProt P21730 1-350)	< 200 nM
Ac-Gly-Phe-Orn-Aze-chg-Bta-Phe-NH2 (peptide)	human C5aR (CD88) (human, UniProt P21730 1-350)	< 200 nM
Ac-Phe-Orn-Pro-hle-Bta-Pff-NH2 (peptide)	human C5aR (CD88) (human, UniProt P21730 1-350)	< 200 nM
Ac-Phe-Orn-Pro-hle-Pff-Phe-NH2 (peptide)	human C5aR (CD88) (human, UniProt P21730 1-350)	< 200 nM
Ac-Phe-Orn-Pro-cha-Bta-Dff-NH2 (peptide)	human C5aR (CD88) (human, UniProt P21730 1-350)	< 50 nM
Ac-Phe-Orn-Pro-hle-Otf-Phe-NH2 (peptide)	human C5aR (CD88) (human, UniProt P21730 1-350)	< 200 nM
Ac-Guf-Phe-Orn-Aze-cha-Bta-Phe-NH2 (peptide)	human C5aR (CD88) (human, UniProt P21730 1-350)	< 200 nM
Ac-Ebw-Orn-Pro-cha-Trp-Phe-NH2 (peptide)	human C5aR (CD88) (human, UniProt P21730 1-350)	< 200 nM
